Listed here: items and their measured CC50.
test: Cytotoxicity against human HepG2.2.15 cells […] by MTT assay; format: cell-based, HepG2 2.2.15

{"columns": ["Line notation", "CC50"],
 "data": [
  ["Nc1ccn([C@H]2CS[C@@H](CO)O2)c(=O)n1", "> 100 µM"],
  ["O=c1[nH]c(SCc2ccc([N+](=O)[O-])cc2)nc(Cc2cc(F)cc(F)c2)c1I", "> 100 µM"],
  ["CN1CCN(C(=O)c2nc(SCc3ccc(C#N)cc3)[nH]c(=O)c2I)CC1", "> 100 µM"],
  ["N#Cc1ccc(CSc2nc(C(=O)NCCCc3ccccc3)c(I)c(=O)[nH]2)cc1", "> 50 µM"],
  ["N#Cc1ccc(CSc2nc(C(=O)N3CCCc4ccccc43)c(I)c(=O)[nH]2)cc1", "> 100 µM"]
]}
